Test Protocol: Inhibition of bovine tubulin polymerization assessed as reduction in extent of assembly preincubated for 15 mins followed by addition of reaction mixture measured after 20 mins by turbidimetric assay
Set-up: species or system Bos taurus
Give IC50 for every item shown.
Provide only the numeric value, understood in nM.

// field: IC50; key: COc1cccc2cc(N(C)c3nc(C)nc4c3CCC4)ccc12 ; value = 980

// field: IC50; key: COc1ccc(N(C)c2nc(C)nc3c2CCC3)cc1 ; value = 1600

// field: IC50; key: COc1ccc(N(C)c2nc(C)nc3c2CCC3)c2ccccc12 ; value = 1400

// field: IC50; key: COc1cccc2cc(N(C)c3ncnc4c3CCC4)ccc12 ; value = 1200

###

Give inhibition for every item shown.
Organism: Bos taurus
Test Protocol: Inhibition of [3H]colchicine binding to bovine tubulin at 5 uM measured after 10 mins by scintillation counting
Provide only the numeric value, understood in %.

// field: inhibition; key: COc1cccc2cc(N(C)c3ncnc4c3CCC4)ccc12 ; value = 93

// field: inhibition; key: COc1ccc(N(C)c2nc(C)nc3c2CCC3)cc1 ; value = 92

// field: inhibition; key: COc1cccc2cc(N(C)c3nc(C)nc4c3CCC4)ccc12 ; value = 98

// field: inhibition; key: COc1ccc(N(C)c2nc(C)nc3c2CCC3)c2ccccc12 ; value = 72

###

System: HeLa
Test Protocol: Antiproliferative activity against human HeLa cells assessed as decrease in cell growth measured after 48 hrs by SRB method
Assay type: functional, cell-based
Value Type: IC50 (µM)
Provide only the numeric value, understood in µM.

// field: IC50; key: COc1cccc2cc(N(C)c3nc(N)nc4c3CCC4)ccc12 ; value = 0.0126

// field: IC50; key: COc1cccc2cc(N(C)c3nc(C)nc4c3CCC4)ccc12 ; value = 0.0034

// field: IC50; key: COc1ccc(N(C)c2nc(C)nc3c2CCC3)c2ccccc12 ; value = 0.25

// field: IC50; key: COc1cccc2cc(N(C)c3ncnc4c3CCC4)ccc12 ; value = 0.0564

// field: IC50; key: COc1cccc2c(N(C)c3nc(C)nc4c3CCC4)cccc12 ; value = 1.2

###

Test Protocol: Induction of microtubule depolymerisation in rat A-10 cell line measured after 18 hrs by indirect immunofluorescence method
Experimental Context: a10
Decision: EC50 beneath 200 nM gives t; EC50 meeting or exceeding 200 nM gives f.

stdin: Item COc1cccc2c(N(C)c3nc(C)nc4c3CCC4)cccc12 : EC50 beneath 200 nM, strictly?
stdout: f

stdin: Item COc1cccc2cc(N(C)c3ncnc4c3CCC4)ccc12 : EC50 beneath 200 nM, strictly?
stdout: t

stdin: Item COc1ccc(/C=C\c2cc(OC)c(OC)c(OC)c2)cc1O : EC50 beneath 200 nM, strictly?
stdout: t

stdin: Item COc1ccc(N(C)c2nc(C)nc3c2CC(C)C3)cc1 (stereo not given) : EC50 beneath 200 nM, strictly?
stdout: f

stdin: Item COc1cccc2cc(N(C)c3nc(N)nc4c3CCC4)ccc12 : EC50 beneath 200 nM, strictly?
stdout: t

stdin: Item COc1ccc2c(N(C)c3ncnc4c3CCC4)cccc2c1 : EC50 beneath 200 nM, strictly?
stdout: f

stdin: Item COc1ccc2c(N(C)c3nc(C)nc4c3CCC4)cccc2c1 : EC50 beneath 200 nM, strictly?
stdout: f

stdin: Item COc1ccc(N(C)c2nc(C)nc3c2CCC3)c2ccccc12 : EC50 beneath 200 nM, strictly?
stdout: f

stdin: Item COc1ccc(N(C)c2nc(C)nc3c2CCC3)cc1 : EC50 beneath 200 nM, strictly?
stdout: t

stdin: Item COc1cccc2cc(N(C)c3nc(C)nc4c3CCC4)ccc12 : EC50 beneath 200 nM, strictly?
stdout: t
